target: Serotonin (5HT) reuptake (Rattus norvegicus, UniProt P31652); construct: synaptosomes are freshly isolated from areas of rat brain; from tissue; host or cells: rat brain synaptosomes (P2 fraction); assay: Serotonin (5HT) reuptake inhibition in rat brain synaptosomes (P2 fraction); format: biochemical; details: read-out: Serotonin reuptake, % inhibition [10 μM]
Sequence (P31652 whole entry): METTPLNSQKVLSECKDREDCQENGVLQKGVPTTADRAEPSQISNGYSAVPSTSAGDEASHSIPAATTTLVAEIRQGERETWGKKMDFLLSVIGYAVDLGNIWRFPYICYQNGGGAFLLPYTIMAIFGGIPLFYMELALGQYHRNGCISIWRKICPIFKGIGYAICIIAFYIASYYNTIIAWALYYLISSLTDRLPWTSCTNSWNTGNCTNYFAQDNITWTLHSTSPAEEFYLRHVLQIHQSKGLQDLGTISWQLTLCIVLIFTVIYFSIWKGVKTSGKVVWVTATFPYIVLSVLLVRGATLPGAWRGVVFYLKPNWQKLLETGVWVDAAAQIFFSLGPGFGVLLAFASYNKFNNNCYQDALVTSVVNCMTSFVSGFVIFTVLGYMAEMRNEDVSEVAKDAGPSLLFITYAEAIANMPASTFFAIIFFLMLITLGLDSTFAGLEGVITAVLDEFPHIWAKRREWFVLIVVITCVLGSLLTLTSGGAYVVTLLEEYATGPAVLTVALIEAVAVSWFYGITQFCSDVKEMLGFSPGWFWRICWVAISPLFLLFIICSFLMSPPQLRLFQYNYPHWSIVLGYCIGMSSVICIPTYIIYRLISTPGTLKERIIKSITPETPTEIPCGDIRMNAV
Structures can show the parent of a compound that is named as a salt.
Catalogue of inhibition at 10 µM readings, one per entry.
Your reply should be a number followed by the unit it is expressed in.

INSERT INTO results (compound, experimental_target, parameter, reported_value) VALUES
  ('CCC(CC)C(=O)N(c1ccccc1)C1CCC(C(c2ccccc2)N(C)C)CC1 (stereo not drawn) [compound 105, hydrochloride]', 'Serotonin (5HT) reuptake (Rattus norvegicus, UniProt P31652)', 'inhibition at 10 µM', '85%'),
  ('CN(C)C(c1ccccc1)C1CCC(NCCCc2ccccc2)CC1 (stereo not drawn) [compound 85, dihydrochloride]', 'Serotonin (5HT) reuptake (Rattus norvegicus, UniProt P31652)', 'inhibition at 10 µM', '77%'),
  ('CCOC(=O)C=CC1CCC(C(c2ccccc2)N(C)C)CC1 (stereo not drawn) [compound 132]', 'Serotonin (5HT) reuptake (Rattus norvegicus, UniProt P31652)', 'inhibition at 10 µM', '86%'),
  ('CCOC(=O)C=C1CCC(C(c2ccccc2)N(C)C)CC1 (stereo not drawn) [compound 123]', 'Serotonin (5HT) reuptake (Rattus norvegicus, UniProt P31652)', 'inhibition at 10 µM', '92%'),
  ('CCC(CC)C(=O)N(Cc1ccccc1)C1CCC(C(c2ccccc2)N(C)C)CC1 (stereo not drawn) [compound 101, hydrochloride]', 'Serotonin (5HT) reuptake (Rattus norvegicus, UniProt P31652)', 'inhibition at 10 µM', '81%'),
  ('COc1ccc(OC)c(C2(O)CCC(C(c3ccccc3)N(C)C)CC2)c1 (stereo not drawn) [compound 149, hydrochloride]', 'Serotonin (5HT) reuptake (Rattus norvegicus, UniProt P31652)', 'inhibition at 10 µM', '85%');

Fill in the blank: the reported inhibition at 10 µM of CN(C)C(c1ccccc1)[C@H]1CC[C@H](CCc2ccccc2)CC1 (relative stereo) [compound 146, hydrochloride] is ____.
92%

Can you check CN(C)C(c1ccccc1)C1CCC(N(Cc2ccccc2)C(=O)c2ccccc2)CC1 (stereo not drawn) [compound 104, hydrochloride] next?
90%

Can you check CN(C)C(CCc1ccccc1)C1CCC(CN)CC1 (stereo not drawn) [compound 45] next?
90%

Can you check CN(C)C(c1cccs1)C1CCC(CN)CC1 (stereo not drawn) [compound 42] next?
86%

Can you check CN(C)C(c1cccs1)C1CCC(CC=O)CC1 (stereo not drawn) [compound 67] next?
95%

Can you check CCOC(=O)CCC1CCC(C(c2ccc(F)cc2)N(C)C)CC1 (stereo not drawn) [compound 136] next?
86%

Can you check CN(C)C(c1cccs1)C1CCC(C=O)CC1 (stereo not drawn) [compound 40] next?
78%

Can you check CN(C)C(c1cccc(F)c1)C1CCC(CCO)CC1 (stereo not drawn) [compound 131] next?
91%

---

Catalogue of inhibition at 1 µM readings, one per entry.
target: human μ-opiate receptor (Homo sapiens); experiment: Affinity for the human μ-opiate receptor ([3H]-naloxone displacement, SPA, CHO-K1 membrane preparation); assay type: binding; conditions: read-out: μ-Opioid receptor, % inhibition [1 μM]
Sequence (P35372 whole entry): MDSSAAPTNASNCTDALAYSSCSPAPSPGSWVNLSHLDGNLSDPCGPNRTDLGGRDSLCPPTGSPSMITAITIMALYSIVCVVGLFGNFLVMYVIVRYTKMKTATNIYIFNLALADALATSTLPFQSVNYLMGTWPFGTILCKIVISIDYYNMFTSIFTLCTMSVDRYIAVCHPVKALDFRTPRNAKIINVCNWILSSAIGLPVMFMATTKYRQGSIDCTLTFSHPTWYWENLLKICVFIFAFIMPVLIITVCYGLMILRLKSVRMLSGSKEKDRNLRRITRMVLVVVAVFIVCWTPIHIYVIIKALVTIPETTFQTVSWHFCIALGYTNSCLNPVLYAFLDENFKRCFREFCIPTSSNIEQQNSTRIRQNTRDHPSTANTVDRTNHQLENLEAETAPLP
Please state the figure in %; there is no need to write the unit.

INSERT INTO results (compound, reported_value) VALUES
  ('COc1cccc(CC(=O)NCCC2CCC(C(c3cccc(F)c3)N(C)C)CC2)c1 (centres unmarked)', 83),
  ('CN(C)C(c1ccc(Cl)cc1)C1CCC(CCNC(=O)c2ccc(F)cc2F)CC1 (centres unmarked)', 91),
  ('CN(C)C(c1cccc(F)c1)C1CCC(CCNC(=O)c2cccc(Cl)c2)CC1 (single isomer, unassigned)', 94),
  ('CN(C)C(c1cccc(F)c1)C1CCC(CCNC(=O)c2cc(F)cc(F)c2)CC1 (centres unmarked)', 99);

Fill in the blank: the reported inhibition at 1 µM of CN(C)C(c1ccccc1)C1CCC(CCNC(=O)c2cc(F)cc(F)c2)CC1 (centres unmarked) is ____.
89

Can you check CN(C)C(c1cccc(F)c1)C1CCC(NC(=O)c2ccc(Cl)c(Cl)c2)CC1 (centres unmarked) next?
92

Can you check CN(C)C(c1ccccc1)C1CCC(CCNC(=O)c2c(F)c(F)c(F)c(F)c2F)CC1 (centres unmarked) next?
97

Can you check CCC(C(=O)NCCC1CCC(C(c2ccc(Cl)cc2)N(C)C)CC1)c1ccccc1 (centres unmarked) next?
81
